The measured values listed here are drawn from patent US8481732B2.

Target desc: histamine H4 receptor (Homo sapiens)
Experiment summary: H4 Membrane Binding Assay (3H-Histamine displacement)
Particulars: membranes of recombinant HEK293SFM cells, 10 nM 3H-Histamine, 1.5 hr at room temperature
# reported pIC50; entries follow
// pIC50 here means minus log10 of the molar concentration (mol/L)

Enquiry: Param item = CN1CCN(c2cc(-c3ccc4c(c3)CNCC4)nc(N)n2)CC1 ; retrieve measured pIC50.
Return: 6.70

Enquiry: Param item = CN1CCN(c2cc(-c3ccc4c(c3)CN(C(=O)NC3CCC(F)(F)CC3)CC4)nc(N)n2)CC1 ; retrieve measured pIC50.
Return: 7.43

Enquiry: Param item = CNC(=O)c1ccc2c(N3CCN(C)CC3)nc(N)nc2c1 ; retrieve measured pIC50.
Return: 6.31

***
Enquiry: Param item = CC(C)Oc1ccc(C[C@@H](C#N)NC(=O)c2ccc3c(N4CCN(C)CC4)nc(N)nc3c2)cc1 ; retrieve measured pIC50.
Return: 7.38

###

Target desc: histamine H4 receptor (Homo sapiens, UniProt Q9H3N8)
Sequence (Q9H3N8 whole entry): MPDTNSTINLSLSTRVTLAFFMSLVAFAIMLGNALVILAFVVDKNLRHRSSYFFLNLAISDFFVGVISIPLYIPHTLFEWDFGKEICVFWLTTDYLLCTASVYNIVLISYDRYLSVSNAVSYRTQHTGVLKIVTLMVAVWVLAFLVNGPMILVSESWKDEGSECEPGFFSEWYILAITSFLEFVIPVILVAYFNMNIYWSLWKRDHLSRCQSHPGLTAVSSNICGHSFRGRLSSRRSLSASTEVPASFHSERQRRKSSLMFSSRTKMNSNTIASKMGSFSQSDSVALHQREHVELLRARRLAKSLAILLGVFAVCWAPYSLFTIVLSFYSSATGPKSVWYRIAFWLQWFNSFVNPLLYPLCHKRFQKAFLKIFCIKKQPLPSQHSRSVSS
Experiment summary: H4 Membrane Binding Assay (3H-Histamine displacement)
Particulars: membranes of recombinant HEK293SFM cells, 10 nM 3H-Histamine, 1.5 hr at room temperature
Measure name: pIC50
// pIC50 here means minus log10 of the molar concentration (mol/L)

Study these solved cases before continuing.
Enquiry: Param item = CN1CCN(c2cc(-c3ccc4c(c3)CN(C(=O)NC3CCC(C(=O)N(C)C)CC3)CC4)nc(N)n2)CC1 (stereo not shown) ; retrieve measured pIC50.
Return: 6.36

Enquiry: Param item = CC(NC(=O)N1CCc2ccc(-c3cc(N4CCN(C)CC4)nc(N)n3)cc2C1)c1cccnc1 (stereo not shown) ; retrieve measured pIC50.
Return: 6.24

Enquiry: Param item = COC(=O)c1cccc(COc2ccc3c(c2)C(NC(=O)c2ccc4c(N5CCN(C)CC5)nc(N)nc4c2)CCC3)c1 (stereo not shown) ; retrieve measured pIC50.
Return: 8.03

Enquiry: Param item = COc1ccc(Oc2cccc(CC(NC(=O)c3ccc4c(N5CCN(C)CC5)nc(N)nc4c3)C(=O)N(C)C)c2)cc1 (stereo not shown) ; retrieve measured pIC50.
Return: 7.51

Enquiry: Param item = CN1CCN(c2cc(-c3ccc4c(c3)CN(C(=O)Nc3ccc(Oc5ccccc5)cc3)CC4)nc(N)n2)CC1 ; retrieve measured pIC50.
Return: 7.28

***
Enquiry: Param item = CN1CCN(c2cc(-c3ccc4c(c3)CN(C(=O)c3ccc(Cl)cc3)CC4)nc(N)n2)CC1 ; retrieve measured pIC50.
Return: 6.76

Enquiry: Param item = COc1ccc([C@@H](C)NC(=O)c2ccc3c(N4CCN(C)CC4)nc(N)nc3c2)cc1 ; retrieve measured pIC50.
Return: 6.31

###

Target desc: histamine H4 receptor (Homo sapiens, UniProt Q9H3N8)
Experiment summary: H4 Membrane Binding Assay (3H-Histamine displacement)
Particulars: membranes of recombinant HEK293SFM cells, 10 nM 3H-Histamine, 1.5 hr at room temperature
pIC50: −log10 of the molar value.
Classify as follows. Reported pIC50 greater than or equal to 7: rule met. Reported pIC50 below: rule not met.

Solved entries:
Enquiry: Hi, just wondering whether COC(=O)[C@H](Cc1ccc(-c2cnn(C)c2)cc1)NC(=O)c1ccc2c(N3CCN(C)CC3)nc(N)nc2c1 [Example 140] shows pIC50 of 7 or higher.
Return: rule met

Enquiry: Hi, just wondering whether CN1CCN(c2cc(-c3ccc4c(c3)CN(c3ccc(C#N)cc3)CC4)nc(N)n2)CC1 [Example 14] shows pIC50 of 7 or higher.
Return: rule met

Enquiry: Hi, just wondering whether CN1CCN(c2cc(-c3ccc4c(c3)CN(c3ccc(C#N)cn3)CC4)nc(N)n2)CC1 [Example 16] shows pIC50 of 7 or higher.
Return: rule met

***
Enquiry: Hi, just wondering whether CN1CCN(c2cc(-c3ccc4c(c3)CN(C(=O)CC3CCC3)CC4)nc(N)n2)CC1 [Example 109] shows pIC50 of 7 or higher.
Return: rule met

Enquiry: Hi, just wondering whether CC(NC(=O)N1CCc2ccc(-c3cc(N4CCN(C)CC4)nc(N)n3)cc2C1)c1ccn(C)n1 (stereo not drawn) [Example 127] shows pIC50 of 7 or higher.
Return: rule not met

Enquiry: Hi, just wondering whether Cc1cccc(Oc2cccc(CNC(=O)c3ccc4c(N5CCN(C)CC5)nc(N)nc4c3)c2)c1C#N [Example 189] shows pIC50 of 7 or higher.
Return: rule met

Enquiry: Hi, just wondering whether CN1CCN(c2nc(N)nc3cc(C(=O)NC(Cc4cccc(Oc5nsnc5Cl)c4)C(=O)N(C)C)ccc23)CC1 (stereo not drawn) [Example 168] shows pIC50 of 7 or higher.
Return: rule met

Enquiry: Hi, just wondering whether CN1CCN(c2cc(-c3ccc4c(c3)CN(C(=O)NC(Cc3ccccc3)C(=O)N(C)C)CC4)nc(N)n2)CC1 (stereo in doubt) [Example 60] shows pIC50 of 7 or higher.
Return: rule not met

Enquiry: Hi, just wondering whether CN1CCN(c2cc(-c3ccc4c(c3)CN(C(=O)N[C@@H]3CCCC[C@@H]3OCC3CC3)CC4)nc(N)n2)CC1 (relative stereo) [Example 86] shows pIC50 of 7 or higher.
Return: rule met

Enquiry: Hi, just wondering whether CN1CCN(c2cc(-c3ccc4c(c3)CN(C(=O)CC3CCCC3)CC4)nc(N)n2)CC1 [Example 41] shows pIC50 of 7 or higher.
Return: rule met

###

# reported pIC50; entries follow
Target desc: histamine H4 receptor (Homo sapiens)
Experiment summary: H4 Membrane Binding Assay (3H-Histamine displacement)
Particulars: membranes of recombinant HEK293SFM cells, 10 nM 3H-Histamine, 1.5 hr at room temperature
// pIC50 here means minus log10 of the molar concentration (mol/L)

Study these solved cases before continuing.
Enquiry: Param item = CC(Oc1cccc(CNC(=O)c2ccc3c(N4CCN(C)CC4)nc(N)nc3c2)c1)c1cccc(C(F)(F)F)c1 (stereo not drawn) ; retrieve measured pIC50.
Return: 8.36

Enquiry: Param item = COC(=O)c1ccccc1Oc1cccc(CNC(=O)c2ccc3c(N4CCN(C)CC4)nc(N)nc3c2)c1 ; retrieve measured pIC50.
Return: 7.70

***
Enquiry: Param item = CN1CCN(c2nc(N)nc3cc(C(=O)N[C@@H](Cc4ccc(-c5ccccc5)cc4)C(=O)N(C)C)ccc23)CC1 ; retrieve measured pIC50.
Return: 7.60

Enquiry: Param item = CN1CCN(c2cc(-c3ccc4c(c3)CN(S(=O)(=O)c3ccccc3)CC4)nc(N)n2)CC1 ; retrieve measured pIC50.
Return: 6.57

Enquiry: Param item = COc1ccc(C#N)c(Oc2cccc(CC(NC(=O)c3ccc4c(N5CCN(C)CC5)nc(N)nc4c3)C(=O)N(C)C)c2)c1 (stereo not drawn) ; retrieve measured pIC50.
Return: 7.64

Enquiry: Param item = CC(C)NC(=O)N1CCc2ccc(-c3cc(N4CCN(C)CC4)nc(N)n3)cc2C1 ; retrieve measured pIC50.
Return: 7.24

Enquiry: Param item = COC(=O)[C@H](Cc1ccc(OC(=O)NC(C)C)cc1)NC(=O)c1ccc2c(N3CCN(C)CC3)nc(N)nc2c1 ; retrieve measured pIC50.
Return: 7.15

Enquiry: Param item = CN1CCN(c2cc(-c3ccc4c(c3)CN(C(=O)OC3CCN(C(=O)C5CCCC5)CC3)CC4)nc(N)n2)CC1 ; retrieve measured pIC50.
Return: 6.96

###

Target desc: histamine H4 receptor (Homo sapiens, UniProt Q9H3N8)
Experiment summary: H4 Membrane Binding Assay (3H-Histamine displacement)
Particulars: membranes of recombinant HEK293SFM cells, 10 nM 3H-Histamine, 1.5 hr at room temperature
# strict inequality: IC50 < 200 nM yields Satisfied, everything else yields Not satisfied

Solved entries:
Enquiry: Bench note: check whether Cc1cc2c(cc1-c1cc(N3CCN(C)CC3)nc(N)n1)CN(C(=O)NC1CCCCC1)CC2 shows IC50 below 200 nM
Return: Not satisfied

Enquiry: Bench note: check whether CN1CCN(c2nc(N)nc3cc(C(=O)NC(C)(C)c4ccccc4)ccc23)CC1 shows IC50 below 200 nM
Return: Not satisfied

Enquiry: Bench note: check whether CC(CC(=O)N1CCc2ccc(-c3cc(N4CCN(C)CC4)nc(N)n3)cc2C1)C(F)(F)F (centres unmarked) shows IC50 below 200 nM
Return: Satisfied

Enquiry: Bench note: check whether CN1CCN(c2cc(-c3ccc4c(c3)CN(C(=O)N[C@@H]3CCOC3)CC4)nc(N)n2)CC1 shows IC50 below 200 nM
Return: Not satisfied

Enquiry: Bench note: check whether CN1CCN(c2nc(N)nc3cc(C(=O)NCCCc4ccccc4)ccc23)CC1 shows IC50 below 200 nM
Return: Satisfied

***
Enquiry: Bench note: check whether CN1CCN(c2cc(-c3ccc4c(c3)CN(C(=O)c3cccc(Cl)c3)CC4)nc(N)n2)CC1 shows IC50 below 200 nM
Return: Satisfied

Enquiry: Bench note: check whether CN1CCN(c2cc(-c3ccc4c(c3)CN(C(=O)Nc3nccs3)CC4)nc(N)n2)CC1 shows IC50 below 200 nM
Return: Satisfied
